Molecular target: murine NaPi-IIb (Mus musculus)
Construct: expressed in transfected cells
Sequence (Q9DBP0 1-697): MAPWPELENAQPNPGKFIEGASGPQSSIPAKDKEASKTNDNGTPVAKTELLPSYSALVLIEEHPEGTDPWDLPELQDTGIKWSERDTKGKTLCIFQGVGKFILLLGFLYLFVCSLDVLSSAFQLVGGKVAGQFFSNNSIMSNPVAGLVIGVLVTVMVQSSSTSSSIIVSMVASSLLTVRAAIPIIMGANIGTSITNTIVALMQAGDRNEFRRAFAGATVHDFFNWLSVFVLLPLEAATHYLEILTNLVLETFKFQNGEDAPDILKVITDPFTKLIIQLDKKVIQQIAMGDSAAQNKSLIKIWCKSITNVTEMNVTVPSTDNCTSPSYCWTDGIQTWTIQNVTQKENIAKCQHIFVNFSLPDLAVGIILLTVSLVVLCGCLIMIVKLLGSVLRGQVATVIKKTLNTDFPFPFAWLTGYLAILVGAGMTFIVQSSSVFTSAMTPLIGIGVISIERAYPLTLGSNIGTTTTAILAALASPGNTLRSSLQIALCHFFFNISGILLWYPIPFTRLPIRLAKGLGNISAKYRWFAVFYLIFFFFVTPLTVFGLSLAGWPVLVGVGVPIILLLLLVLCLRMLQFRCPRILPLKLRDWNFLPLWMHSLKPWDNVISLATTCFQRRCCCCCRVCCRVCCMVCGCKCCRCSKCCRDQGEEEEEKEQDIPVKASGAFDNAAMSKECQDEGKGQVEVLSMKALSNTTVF
Test: Inhibition of 33P uptake in mouse NaPi-IIb T-REX-CHO stable cell line
Format: cell-based
Conditions: 60 min at RT, geometric mean (SD), read-out: m NaPi-IIb rel IC50 (nM), (SD)
Structures can show the parent of a compound that is named as a salt.
Let's look at some molecules and their measured IC50.
measurement type: IC50 (nM)

INSERT INTO assay_data (molecule, endpoint_value) VALUES
  ('COCCN(CCOC)S(=O)(=O)N1CCN(Cc2cccc(C(=O)Nc3sc4c(c3C(=O)Nc3cc(F)c(CCc5ccc(C(=O)O)cc5)c(F)c3)CCCC4)c2)C(C)(C)C1 [Example 3]', 40.9),
  ('CNC(=O)N1C2CCC1CN(Cc1cccc(C(=O)Nc3sc4ccccc4c3C(=O)Nc3cc(F)c(CCc4ccc(C(=O)O)cc4)c(F)c3)c1)C2 [Example 13, Formic Acid Salt]', 9),
  ('CN1CCN(CC(=O)N2C3CCC2CN(Cc2cccc(C(=O)Nc4sc5c(c4C(=O)Nc4cc(F)c(CCc6ccc(C(=O)O)cc6)c(F)c4)CCCC5)c2)C3)CC1 [Example 26]', 15.3),
  ('COCCCCNC(=O)N1CCN(Cc2cccc(C(=O)Nc3sc4c(c3C(=O)Nc3cc(F)c(CCc5ccc(C(=O)O)cc5)c(F)c3)CCCC4)c2)C(C)(C)C1 [Example 7]', 8.56);

---

Target: human NaPi-IIb (Homo sapiens, UniProt O95436)
Construct: expressed in transfected cells
Sequence (O95436 whole entry): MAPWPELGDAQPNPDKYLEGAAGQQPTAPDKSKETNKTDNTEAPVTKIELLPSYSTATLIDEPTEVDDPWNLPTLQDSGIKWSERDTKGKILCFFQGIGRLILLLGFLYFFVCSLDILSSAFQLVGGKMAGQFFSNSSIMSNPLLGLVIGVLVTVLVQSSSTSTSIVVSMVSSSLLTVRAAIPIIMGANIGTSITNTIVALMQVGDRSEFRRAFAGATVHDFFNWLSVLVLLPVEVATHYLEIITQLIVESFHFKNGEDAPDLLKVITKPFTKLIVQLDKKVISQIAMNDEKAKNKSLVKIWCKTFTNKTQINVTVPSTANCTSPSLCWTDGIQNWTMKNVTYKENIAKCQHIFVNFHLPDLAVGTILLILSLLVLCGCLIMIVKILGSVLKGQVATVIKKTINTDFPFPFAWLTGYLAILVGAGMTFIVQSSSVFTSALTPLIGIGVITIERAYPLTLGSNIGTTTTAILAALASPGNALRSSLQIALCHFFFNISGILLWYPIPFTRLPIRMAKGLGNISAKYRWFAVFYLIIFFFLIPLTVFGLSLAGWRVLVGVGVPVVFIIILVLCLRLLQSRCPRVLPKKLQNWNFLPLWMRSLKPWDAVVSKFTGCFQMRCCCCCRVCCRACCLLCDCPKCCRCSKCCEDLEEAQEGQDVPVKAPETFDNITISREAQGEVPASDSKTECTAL
Experiment: Inhibition of 33P uptake in human NaPi-IIb T-REX-CHO stable cell line
Assay type: cell-based
Conditions: 60 min at RT, geometric mean (SD), read-out: h NaPi-IIb rel IC50 (nM), (SD)
measurement type: IC50

INSERT INTO measurements (compound, endpoint_value) VALUES
  ('CN1CCN(CC(=O)N2C3CCC2CN(Cc2cccc(C(=O)Nc4sc5c(c4C(=O)Nc4cc(F)c(CCc6ccc(C(=O)O)cc6)c(F)c4)CCCC5)c2)C3)CC1', '2.4 nM');

Data credit: patent US10934280B2
